These entries and their values trace back to ChEMBL document CHEMBL5291721.

- target desc: Muscarinic acetylcholine receptor M2 (Homo sapiens); also: assay procedure not described here
- Sequence (P08172 whole entry): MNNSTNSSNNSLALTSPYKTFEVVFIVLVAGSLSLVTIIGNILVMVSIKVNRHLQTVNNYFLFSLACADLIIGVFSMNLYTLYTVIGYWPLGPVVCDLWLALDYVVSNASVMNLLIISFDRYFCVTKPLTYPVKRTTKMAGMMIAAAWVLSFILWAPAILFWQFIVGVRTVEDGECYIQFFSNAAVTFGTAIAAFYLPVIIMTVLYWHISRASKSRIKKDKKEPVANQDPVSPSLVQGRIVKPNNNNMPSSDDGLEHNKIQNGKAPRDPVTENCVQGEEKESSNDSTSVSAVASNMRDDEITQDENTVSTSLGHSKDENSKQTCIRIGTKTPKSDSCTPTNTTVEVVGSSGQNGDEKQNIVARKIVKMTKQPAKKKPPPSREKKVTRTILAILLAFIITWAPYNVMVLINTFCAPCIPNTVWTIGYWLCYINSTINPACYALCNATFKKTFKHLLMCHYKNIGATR
- Assay type: functional, cell-based
Quick list: AC50 per entry.

CC(C(=O)O)c1ccc2oc(-c3ccc(Cl)cc3)nc2c1 (stereo not drawn) [BENOXAPROFEN]	> 30 µM
CC(C)c1cccc(C(C)C)c1O [PROPOFOL]	> 30 µM

For the next question, use this compound.
Form field AC50, entry CNC(=C[N+](=O)[O-])NCCSCc1csc(CN(C)C)n1 [NIZATIDINE] : > 10 µM

----------
List of AC50 tested on Vasopressin V1a receptor (Homo sapiens). Also: assay procedure not described here.
Sequence (P37288 whole entry): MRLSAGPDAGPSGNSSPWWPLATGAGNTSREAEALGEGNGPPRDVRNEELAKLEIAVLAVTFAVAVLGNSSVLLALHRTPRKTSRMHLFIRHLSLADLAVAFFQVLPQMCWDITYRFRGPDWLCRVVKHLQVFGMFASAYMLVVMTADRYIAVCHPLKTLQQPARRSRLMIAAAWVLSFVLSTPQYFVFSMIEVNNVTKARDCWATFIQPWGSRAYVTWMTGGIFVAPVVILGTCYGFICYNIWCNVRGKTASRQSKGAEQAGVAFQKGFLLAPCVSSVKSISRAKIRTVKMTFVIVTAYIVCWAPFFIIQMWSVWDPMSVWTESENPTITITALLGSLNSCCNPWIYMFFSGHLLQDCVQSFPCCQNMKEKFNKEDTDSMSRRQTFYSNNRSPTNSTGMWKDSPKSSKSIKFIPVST

CCOc1cc([C@@H](CS(C)(=O)=O)N2C(=O)c3cccc(NC(C)=O)c3C2=O)ccc1OC	> 30 µM
CCCc1nc2c(C)cc(-c3nc4ccccc4n3C)cc2n1Cc1ccc(-c2ccccc2C(=O)O)cc1	> 30 µM
CC(C(=O)O)c1ccc2c(c1)CC(=O)c1ccccc1S2 (stereo not given) [ZALTOPROFEN]	> 30 µM
NS(=O)(=O)c1cc2c(cc1Cl)N=C(CSCc1ccccc1)NS2(=O)=O [BENZTHIAZIDE]	> 10 µM
CN(C)CCCN1c2ccccc2CCc2ccccc21 [IMIPRAMINE]	> 10 µM

Log: Vasopressin V1a receptor (Homo sapiens), compound O=C(O)Cc1ccccc1Oc1ccc(Cl)cc1Cl [FENCLOFENAC] , AC50 = > 10 µM

Log: Vasopressin V1a receptor (Homo sapiens), compound C/C=C(/C(=C/C)c1ccc(O)cc1)c1ccc(O)cc1 [DIENESTROL] , AC50 = > 10 µM

----------
List of AC50 tested on Adenosine receptor A2a (Homo sapiens, UniProt P29274). Also: assay procedure not described here.
Sequence (P29274 whole entry): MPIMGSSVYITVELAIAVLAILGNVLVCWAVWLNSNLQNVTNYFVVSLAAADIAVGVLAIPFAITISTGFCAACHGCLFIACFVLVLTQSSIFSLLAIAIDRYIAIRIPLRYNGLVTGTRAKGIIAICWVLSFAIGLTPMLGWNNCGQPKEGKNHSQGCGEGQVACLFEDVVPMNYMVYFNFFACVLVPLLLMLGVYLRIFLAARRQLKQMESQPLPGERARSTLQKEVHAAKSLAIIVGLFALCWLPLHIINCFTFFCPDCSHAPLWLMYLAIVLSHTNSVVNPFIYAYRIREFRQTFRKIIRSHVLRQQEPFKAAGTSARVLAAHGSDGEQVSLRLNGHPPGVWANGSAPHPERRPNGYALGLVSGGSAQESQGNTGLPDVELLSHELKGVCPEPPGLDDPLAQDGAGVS

Before answering, review these 6 worked examples.
CCCC(C)(COC(N)=O)COC(N)=O [MEPROBAMATE]	> 10 µM
CC[C@H](C)C(=O)O[C@H]1C[C@@H](C)C=C2C=C[C@H](C)[C@H](CC[C@@H]3C[C@@H](O)CC(=O)O3)[C@H]21	> 30 µM
CC1=C(C(=O)OC(C)C)C(c2cccc([N+](=O)[O-])c2)C(C(=O)OC2CN(C(c3ccccc3)c3ccccc3)C2)=C(N)N1 (stereo not drawn)	> 30 µM
CN(CCOc1ccc(CC2SC(=O)NC2=O)cc1)c1ccccn1 (stereo not drawn)	> 30 µM
CCCCOc1ccc(C(=O)CCN2CCCCC2)cc1	> 30 µM
C[C@@H]1C[C@H]2[C@@H]3CCC4=CC(=O)C=C[C@]4(C)[C@@]3(F)[C@@H](O)C[C@]2(C)[C@@]1(O)C(=O)CO	> 30 µM

Form field AC50, entry C=CCN1CCc2nc(N)sc2CC1 [TALIPEXOLE] : > 30 µM

Form field AC50, entry C[C@@H]1C[C@H]2[C@@H]3C[C@H](F)C4=CC(=O)C=C[C@]4(C)[C@@]3(F)[C@@H](O)C[C@]2(C)[C@@]1(OC(=O)c1ccco1)C(=O)SCF [FLUTICASONE FUROATE] : > 10 µM

Form field AC50, entry `Cc1nnc(SCC2=C(C(=O)O)N3C(=O)[C@@H](NC(=O)Cn4cnnn4)[C@H]3SC2)s1` : > 300 µM

Form field AC50, entry `CCOC(=O)C1=C(C)NC(C)=C(C(=O)OCC)C1c1ccccc1/C=C/C(=O)OC(C)(C)C` : > 30 µM

Form field AC50, entry `COc1cc(C(C)=O)ccc1OCCCN1CCC(c2noc3cc(F)ccc23)CC1` : > 30 µM

Form field AC50, entry `C[C@]12C/C(=C/O)C(=O)C[C@@H]1CC[C@@H]1[C@@H]2CC[C@@]2(C)[C@H]1CC[C@]2(C)O` : > 30 µM

Form field AC50, entry CCC(=O)O[C@]1(C(=O)CCl)[C@@H](C)C[C@H]2[C@@H]3CCC4=CC(=O)C=C[C@]4(C)[C@@]3(F)[C@@H](O)C[C@@]21C [CLOBETASOL PROPIONATE] : > 30 µM

Form field AC50, entry `CC/C=C\C/C=C\C/C=C\C/C=C\C/C=C\CCCC(=O)OCC` : > 30 µM

Form field AC50, entry `O=c1c(O)c(-c2ccc(O)c(O)c2)oc2cc(O)cc(O)c12` : > 30 µM
